measured_target: human α7 nAChR (Homo sapiens)
Construct: expressed in transfected cells
measurement_description: Evaluation of PAM activity with human α7 nACh receptor stably expressing cells (aequorin luminescence, FDSS7000)
Format: cell-based
condition_notes: 10 μM test compound; ACh at EC20; ratio of RLU (Max-Min) to control wells; read-out: α7PAM (%) @10 μM
# strict inequality: activity at 10 µM < 200% yields Satisfied, everything else yields Not satisfied

Known results for compounds:
CC(C)(F)C(=O)N[C@H]1CC[C@@H](n2cnc(-c3cccc(OC(F)(F)F)c3)c2)CC1: Satisfied
CC(C)(F)C(=O)N[C@H]1CC[C@@H](n2cnc(-c3c(F)cccc3F)c2)CC1: Not satisfied
CC(C)(F)C(=O)N[C@H]1CC[C@@H](n2cnc(-c3ccc(F)c(F)c3F)c2)CC1: Not satisfied
CO[C@H]1CC[C@H](NC(=O)N2CCC(n3cnc(-c4ccc(C(F)(F)F)cc4)c3)CC2)CC1: Not satisfied

Qu. Does the reported activity at 10 µM of the following compound sit strictly below 200%? "O=C(NC1CCCCC1)N1[C@@H]2CC[C@H]1C[C@H](n1cnc(-c3ccc(F)cc3F)c1)C2"
Ans. Satisfied

Qu. Is the reported activity at 10 µM for O=C(NC1CC2CCC1C2)N1CCC(n2cnc(-c3cccc(OC(F)F)c3)c2)CC1 (stereo not shown) strictly below 200%?
Ans. Satisfied

Qu. State whether 200% exceeds activity at 10 µM recorded for "O=C(NC1CCCCC1)N1CCC(n2cc(-c3ccccc3)nc2Cl)CC1" .
Ans. Satisfied

Qu. Is 200% strictly greater than the compound's reported activity at 10 µM? compound: COC1CCC(NC(=O)N2CCC(n3cnc(-c4ccccc4)c3)CC2)CC1 (stereo not shown)
Ans. Satisfied

Qu. Dear reviewer, please state whether "CC(C)(F)C(=O)N[C@H]1CC[C@@H](n2cnc(-c3cccc(OC(F)(F)F)c3)c2C#N)CC1" has activity at 10 µM strictly beneath 200%.
Ans. Satisfied

Qu. A record lists "CC(C)(F)C(=O)N[C@H]1CC[C@@H](n2cnc(-c3cc(F)ccc3F)c2)CC1" . Is its activity at 10 µM below 200%?
Ans. Not satisfied

* * *

measured_target: human α7 nAChR (Homo sapiens, UniProt P36544)
Construct: expressed in transfected cells
Sequence (P36544 23-502): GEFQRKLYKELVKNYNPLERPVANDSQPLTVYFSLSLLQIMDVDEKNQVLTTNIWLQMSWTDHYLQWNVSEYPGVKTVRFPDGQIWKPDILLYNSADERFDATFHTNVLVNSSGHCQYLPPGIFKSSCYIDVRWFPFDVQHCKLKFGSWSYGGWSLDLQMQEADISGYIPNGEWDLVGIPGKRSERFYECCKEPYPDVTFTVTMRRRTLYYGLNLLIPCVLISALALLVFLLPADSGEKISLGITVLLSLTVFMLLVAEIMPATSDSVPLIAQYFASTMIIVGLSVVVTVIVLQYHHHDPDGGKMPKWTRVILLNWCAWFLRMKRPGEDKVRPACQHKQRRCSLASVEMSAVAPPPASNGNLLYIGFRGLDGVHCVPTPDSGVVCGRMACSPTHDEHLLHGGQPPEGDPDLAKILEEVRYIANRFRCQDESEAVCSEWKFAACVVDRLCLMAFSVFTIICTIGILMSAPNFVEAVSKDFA
measurement_description: Evaluation of PAM activity with human α7 nACh receptor stably expressing cells (aequorin luminescence, FDSS7000)
Format: cell-based
condition_notes: 10 μM test compound; ACh at EC20; ratio of RLU (Max-Min) to control wells; read-out: α7PAM (%) @10 μM
Use MET when the recorded activity at 10 µM is no lower than 500%; use NOT MET when it is lower.

N#Cc1c(-c2cccc(F)c2)ncn1C1CCN(C(=O)C2CC(F)(F)C2)CC1: NOT MET
CC(C)(F)C(=O)N[C@H]1CC[C@@H](n2cnc(-c3cccc(Cl)c3)c2)CC1: NOT MET
N#Cc1c(-c2cc(F)cc(F)c2)ncn1[C@H]1CC[C@@H](C(=O)NC2CCOCC2)CC1: NOT MET
CC(C)(C)C(=O)N[C@H]1CC[C@@H](n2cnc(-c3ccc(Cl)cc3)c2Cl)CC1: NOT MET
O=C(C1CCC(F)(F)CC1)N1[C@@H]2CC[C@H]1C[C@@H](n1cnc(-c3ccc(F)cc3)c1)C2: NOT MET

Qu. Reported activity at 10 µM reaches at least 500% for "O=C(NC1CCCCC1)N1CCC(n2cnc(-c3cccc(F)c3)c2)CC1" ?
Ans. MET

Qu. Given "O=C(N[C@H]1CC[C@H](n2cnc(-c3ccccc3)c2)CC1)C1CCCCC1" , state whether its activity at 10 µM is at least 500%.
Ans. NOT MET

Qu. Assess whether reported activity at 10 µM for "O=C(NC1CCOCC1)N1[C@@H]2CC[C@H]1C[C@@H](n1cnc(-c3cc(F)ccc3F)c1Cl)C2" sits at 500% or higher.
Ans. MET

Qu. Is activity at 10 µM at least 500%? Consider "Cc1c(-c2ccc(F)cc2)ncn1C1CCN(C(=O)C2CCOCC2)CC1"
Ans. NOT MET

Qu. // inclusive: activity at 10 µM at least 500%? input: "N#Cc1c(-c2cccc(F)c2F)ncn1[C@@H]1C[C@H]2CC[C@@H](C1)N2C(=O)NC1CCC(F)(F)CC1"
Ans. NOT MET

Qu. Hello, I need to know if "CC(C)(F)C(=O)N[C@H]1CC[C@@H](n2cnc(-c3cccc(F)c3)c2Cl)CC1" has measured activity at 10 µM not below 500%. Thanks!
Ans. NOT MET

Qu. Quick check, activity at 10 µM >= 500%? "O=C(NC1CCC(F)(F)CC1)N1CCC(n2cnc(-c3ccccc3)c2C2CC2)CC1"
Ans. MET

* * *

measured_target: human α7 nAChR (Homo sapiens, UniProt P36544)
Construct: expressed in transfected cells
measurement_description: Evaluation of PAM activity with human α7 nACh receptor stably expressing cells (aequorin luminescence, FDSS7000)
Format: cell-based
condition_notes: 10 μM test compound; ACh at EC20; ratio of RLU (Max-Min) to control wells; read-out: α7PAM (%) @10 μM
metric: activity at 10 µM
Just the number plus its unit, please.

Recorded results for 2 compounds are shown here.
N#Cc1c(-c2ccccc2)ncn1[C@H]1CC[C@@H](NC(=O)C2CC(F)(F)C2)CC1: 641%
COc1ccc(-c2cn([C@H]3CC[C@@H](NC(=O)C(C)(C)F)CC3)cn2)c(F)c1: 634%

Qu. Supply reported activity at 10 µM belonging to this compound: "O=C(NC1CCC(F)(F)CC1)N1CCC(n2cnc(-c3cc(F)cc(F)c3)c2)CC1"
Ans. 878%

* * *

measured_target: human α7 nAChR (Homo sapiens, UniProt P36544)
Construct: expressed in transfected cells
measurement_description: Evaluation of PAM activity with human α7 nACh receptor stably expressing cells (aequorin luminescence, FDSS7000)
Type: cell-based
condition_notes: 10 μM test compound; ACh at EC20; ratio of RLU (Max-Min) to control wells; read-out: α7PAM (%) @10 μM
The compounds listed here are annotated with their activity at 10 µM.
Number only, in %; omit the unit.

COc1ccc(-c2ncn([C@H]3CC[C@@H](NC(=O)C(C)(C)F)CC3)c2Cl)cc1Cl: 775

Qu. State activity at 10 µM (human α7 nAChR (Homo sapiens, UniProt P36544)) of "O=C(N[C@H]1CC[C@@H](n2cnc(-c3ccccc3)c2Cl)CC1)C1CCCC1" .
Ans. 530

Qu. State recorded activity at 10 µM with human α7 nAChR (Homo sapiens, UniProt P36544), entry "CC(C)(C)NC(=O)N1CCC(n2cnc(-c3ccccc3F)c2)CC1" , no comment.
Ans. 317

Qu. Look up human α7 nAChR (Homo sapiens, UniProt P36544) data: activity at 10 µM of COC1CCC(NC(=O)N2CCC(n3cnc(-c4cccs4)c3)CC2)CC1 (centres unmarked) , then report it.
Ans. 170

* * *

measured_target: human α7 nAChR (Homo sapiens, UniProt P36544)
Construct: expressed in transfected cells
measurement_description: Evaluation of PAM activity with human α7 nACh receptor stably expressing cells (aequorin luminescence, FDSS7000)
Type: cell-based
condition_notes: 10 μM test compound; ACh at EC20; ratio of RLU (Max-Min) to control wells; read-out: α7PAM (%) @10 μM
Parameter threshold = 400%. Response is y when activity at 10 µM meets or exceeds it, else n.

CC(C)(C)NC(=O)N1CCC(n2cnc(-c3cccc(F)c3)c2)CC1: n

Qu. Does activity at 10 µM meet or surpass 400% for "O=C(N[C@H]1CC[C@H](n2cnc(-c3ccccc3)c2Cl)CC1)C1CCCCC1" ?
Ans. n

Qu. Could you tell me if the measured activity at 10 µM of "N#Cc1c(-c2ccccc2)ncn1[C@H]1CC[C@@H](NC(=O)C2CCC2)CC1" reaches 400% or more?
Ans. y

Qu. Decide: is the reported value of activity at 10 µM for "CC(C)(F)C(=O)N[C@H]1CC[C@@H](n2cnc(-c3ccccc3OC(F)(F)F)c2)CC1" equal to or greater than 400%?
Ans. n

Qu. Does the reported activity at 10 µM for "O=C(NC1CCCCC1)N1CCC(n2cnc(-c3ccc(C(F)(F)F)cn3)c2)CC1" fall at or above the 400% mark?
Ans. y

Qu. Say whether "O=C(NC1CCCCC1)N1[C@@H]2CC[C@H]1C[C@@H](n1cnc(-c3ccc(F)cc3)c1Cl)C2" shows activity at 10 µM of 400% or more.
Ans. y

* * *

measured_target: human α7 nAChR (Homo sapiens)
Construct: expressed in transfected cells
measurement_description: Evaluation of PAM activity with human α7 nACh receptor stably expressing cells (aequorin luminescence, FDSS7000)
Type: cell-based
condition_notes: 10 μM test compound; ACh at EC20; ratio of RLU (Max-Min) to control wells; read-out: α7PAM (%) @10 μM
metric: activity at 10 µM
Answer with the number, then the unit.

Below, 2 compounds whose answers are already recorded.
CC(C)(F)C(=O)N[C@H]1CC[C@@H](n2cnc(-c3ccc(F)cc3)c2C#N)CC1: 464%
O=C(NC1CCCCC1)N1CCC(n2cnc(-c3cc(F)cc(F)c3)c2)CC1: 596%

Now for another entry.
Qu. State its activity at 10 µM: "Cc1c(-c2ccc(F)cc2)ncn1[C@H]1CC[C@@H](C(=O)NC2CCOCC2)CC1"
Ans. 377%

From: patent US20150259344A1
